assay: ATG_AP_1_CIS: Attagene CIS-FACTORIAL HepG2 Assay for human Activator Protein 1 (AP-1) (AID 2282931); conditions: HepG2 Attagene cis-factorial AP-1 reporter mRNA; actives raise or lower the signal
The source made the active and inactive calls. How the source made its calls: active means hit-call score of the fitted dose curve at least 0.9, where 1 is the maximum; inactive means score below 0.9.
Possible outcomes: active, inactive

• CC/C=C/CCO = inactive
• CC(C)(C)NC(=O)[C@@H]1CN(Cc2cccnc2)CCN1C[C@@H](O)C[C@@H](Cc1ccccc1)C(=O)N[C@H]1c2ccccc2C[C@H]1O = inactive
• O=C(O)c1cc(Cl)cc(Cl)c1O = inactive
• CCC(C)NC(N)=O (configuration not stated) = inactive
• O=C1NC(=O)C2CC=CCC12 (configuration not stated) = inactive
• OCCN(CCO)c1cccc(Cl)c1 = inactive
• CC(=O)CCc1ccccc1 = inactive
• C=CCOCC(CC)(CO)COCC=C = inactive
• COCCCN = inactive
• Brc1ccc(Oc2ccc(Br)cc2)cc1 = active
• Cc1cc(C)c(S(=O)(=O)O)cc1N=Nc1cc(S(=O)(=O)O)c2ccccc2c1O = inactive
• CO[Si](CCCNCCN)(OC)OC = inactive
• CCO[Si](OCC)(OCC)c1ccccc1 = inactive
• O=C(C(=O)c1ccccc1)c1ccccc1 = inactive
• NCc1ccccc1 = inactive
• CCCCCC[C@@H](O)C/C=C\CCCCCCCC(=O)O = active
• COC(=O)c1ccccc1 = inactive
• CC/C=C\CC/C=C/C(OCC)OCC = inactive
• CCCCCCCCCCCCCC = inactive
• Cc1cc(-n2nc3ccc(Cl)cc3n2)c(O)c(C(C)(C)C)c1 = inactive
• CC[N+](CC)(CC(=O)Nc1c(C)cccc1C)Cc1ccccc1 = inactive
• Cc1ccccc1S(=O)(=O)O = inactive
• O=C1CCCCCCCCCCCCCC1 = active
• CC(=O)c1nccs1 = inactive
• O=[N+]([O-])c1ccccc1C(F)(F)F = inactive
• CCCN[C@H]1CCc2nc(N)sc2C1 = inactive
• CCCCCCC1CCC(=O)O1 (configuration not stated) = inactive
• CN(C)Cc1cc(C(C)(C)C)c(O)c(C(C)(C)C)c1 = inactive
• C=C(C)C(=O)OCCCCCC = inactive
• CC(O)(P(=O)(O)O)P(=O)(O)O = inactive
• Cc1ccccc1S(N)(=O)=O = inactive
• O=C(c1ccccc1)c1ccccc1O = inactive

----------
Target: Cellular tumor antigen p53 (Homo sapiens)
Test: TOX21_p53_BLA_p3_ratio: Tox21 HCT-116 p53 Agonism Beta-lactamase Assay, Ratio, Phase 3 (AID 2283596)
Method: TOX21_p53_BLA_p3 is a cell-based, single-readout assay that uses HCT116, a human intestinal cell line, […] in a 1536-well plate.TOX21_p53_BLA_p3_ratio is an assay readout measuring reporter gene via receptor activity and designed using inducible reporter (beta lactamase induction) detected with GAL4 b-lactamase reporter gene. […] This assay endpoint, TOX21_p53_BLA_p3_ratio, was analyzed in the positive analysis fitting direction relative to DMSO as the negative control and baseline of activity. […]
Records with an inconclusive call do not appear. The source made the active and inactive calls. Rule for the calls: active = hit-call score of the fitted dose curve at least 0.9, where 1 is the maximum; inconclusive = response in the unintended direction; inactive = score below 0.9.
TEST READOUT: AC50

• CCCN1CCCC[C@H]1C(=O)Nc1c(C)cccc1C = inactive
• ClC1=C(Cl)C1(Cl)Cl = inactive
• CO[C@@]1(NC(=O)CSCC#N)C(=O)N2C(C(=O)O)=C(CSc3nnnn3C)CS[C@@H]21 = inactive
• c1coc(Cn2cccc2)c1 = inactive
• Nc1ccc(S(=O)(=O)Nc2ccc(Cl)nn2)cc1 = inactive
• O=S(=O)(O)c1ccc2c(N=Nc3ccc(S(=O)(=O)O)c4ccccc34)c(O)c(S(=O)(=O)O)cc2c1 = inactive
• O=P(O)(O)OC(Cn1cncn1)(Cn1cncn1)c1ccc(F)cc1F = inactive
• CC(=C(CCOP(=O)(O)O)SC(=O)c1ccccc1)N(C=O)Cc1cnc(C)nc1N = inactive
• CC[C@@]1(O)C(=O)OCc2c1cc1n(c2=O)Cc2cc3c(CN(C)C)c(O)ccc3nc2-1 = 0.381 µM (active)
• CCOc1ccc([N+](=O)[O-])cc1 = 80.9 µM (active)
• O=P(O)(OCc1ccccc1)OCc1ccccc1 = inactive
• c1ccc([C@H]2CN3CCSC3=N2)cc1 = inactive
• C#CCN(C)Cc1ccccc1 = inactive
• CC=CC(=O)CCCC = inactive
• CN(C)CCCN1c2ccccc2Sc2ccc(C(F)(F)F)cc21 = 11.1 µM (active)
• NCCc1cnc[nH]1 = inactive
• CCCCCCCCCCCCSC#N = inactive
• Nc1ccc(S(=O)(=O)Nc2cnc3ccccc3n2)cc1 = inactive
• CC(=O)O[C@@H]1C(=O)O[C@@H]2[C@H]1OC(=O)[C@@H]2OC(C)=O = inactive

----------
molecular target: Retinoic acid receptor RXR-alpha (Homo sapiens) (UniProt P19793); assay: OT_NURR1_NURR1RXRa_0480: Odyssey Thera (OT) 8-hour HEK293T Protein Complementation Assay for Nurr1/retinoid X receptor (RXR) (AID 2283385)
Sequence (P19793 whole entry, looked up): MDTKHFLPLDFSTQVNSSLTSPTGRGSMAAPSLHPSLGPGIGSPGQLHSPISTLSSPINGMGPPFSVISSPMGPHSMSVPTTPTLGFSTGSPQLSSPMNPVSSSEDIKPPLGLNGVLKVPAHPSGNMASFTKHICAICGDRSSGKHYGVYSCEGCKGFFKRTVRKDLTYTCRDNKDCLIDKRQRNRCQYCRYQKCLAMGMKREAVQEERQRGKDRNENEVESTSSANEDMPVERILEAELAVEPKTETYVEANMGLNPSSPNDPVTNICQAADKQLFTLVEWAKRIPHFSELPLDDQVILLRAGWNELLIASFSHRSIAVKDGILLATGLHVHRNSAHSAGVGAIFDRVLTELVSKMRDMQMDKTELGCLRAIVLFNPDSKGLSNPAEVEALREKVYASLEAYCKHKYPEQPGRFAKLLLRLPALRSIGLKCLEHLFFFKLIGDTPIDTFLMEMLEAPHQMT
Records with an inconclusive call do not appear. Calls of active or inactive are those of the source. How the source made its calls: active means hit-call score of the fitted dose curve at least 0.9, where 1 is the maximum; inconclusive means response in the unintended direction; inactive means score below 0.9.
Possible outcomes: active, inactive

* CCCCCC[C@@H](O)C/C=C\CCCCCCCC(=O)O | inactive
* CC[N+](CC)(CC(=O)Nc1c(C)cccc1C)Cc1ccccc1 | inactive
* CC[N+](CC)(CC(=O)Nc1c(C)cccc1C)Cc1ccccc1 (tested in a mixture with another compound) | inactive
* O=C(Oc1ccccc1)c1ccccc1 | active
* C=C1CC[C@H]2C[C@@H]1C2(C)C | inactive
* CCC(C)=NO | inactive
* C[Si](C)(C)O[Si](C)(C)O[Si](C)(C)C | inactive

----------
assay: TOX21_p53_BLA_p5_viability: Viability Assessment in the Tox21 HCT-116 p53 Agonism Beta-lactamase Assay, Phase 5 (AID 2283600)
Inconclusive results are not listed. Calls of active or inactive are those of the source. The calls were made as follows: active = hit-call score of the fitted dose curve at least 0.9, where 1 is the maximum; inconclusive = response in the unintended direction; inactive = score below 0.9.
Outcomes: Yes for active, No for inactive

- C[C@@H]1CCC2[C@@H](C)[C@@H](O)O[C@@H]3O[C@@]4(C)CC[C@@H]1[C@@]23OO4 (stereo not given in full): No
- Cc1nc(Nc2ncc(C(=O)Nc3c(C)cccc3Cl)s2)cc(N2CCN(CCO)CC2)n1: No
- O=C(CCCN1CCC(O)(c2cccc(C(F)(F)F)c2)CC1)c1ccc(F)cc1: No
- Cc1cc2c(C(C)C)c(O)c(O)c(C=O)c2c(O)c1-c1c(C)cc2c(C(C)C)c(O)c(O)c(C=O)c2c1O: Yes
- CC(C)CN(C[C@@H](O)[C@H](Cc1ccccc1)NC(=O)O[C@H]1CO[C@H]2OCC[C@H]21)S(=O)(=O)c1ccc(N)cc1: No
- COC1=C(OC)C(=O)C(C/C=C(\C)CC/C=C(\C)CC/C=C(\C)CC/C=C(\C)CC/C=C(\C)CC/C=C(\C)CC/C=C(\C)CC/C=C(\C)CC/C=C(\C)CCC=C(C)C)=C(C)C1=O: No
- COc1cc2c(cc1OC)C(=O)C(CC1CCN(Cc3ccccc3)CC1)C2 (stereo not given): No
- Cc1cccn2c(=O)c(-c3nnn[nH]3)cnc12: No
- O=S1(=O)c2cccc3cccc(c23)N1CCCN1CCN(c2ccc(F)cc2)CC1: No
- CCCN(CCc1cccs1)[C@H]1CCc2c(O)cccc2C1: No

----------
read-out: CD40, CD40 (gene 958); test: BSK_SAg_CD40: BioMAP Diversity Plus: SAg Assay for CD40 Biomarker Activity (AID 2283088); conditions: primary human HUVEC with PBMC; actives raise or lower the signal
Active and inactive are the calls of the source. Rule for the calls: active = hit-call score of the fitted dose curve at least 0.9, where 1 is the maximum; inactive = score below 0.9.
Classes used: active, inactive

- CC(C)C1OCCN1CCOC(=O)NCCCCCCNC(=O)OCCN1CCOC1C(C)C (centres undefined): inactive
- CCCCCCCCCCC1CO1 (centres undefined): active
- CCCCCCC(O)CCCCCCCCCCC(=O)OC (centres undefined): inactive
- Oc1cccc2ccccc12: inactive
- CN(C)CCC(c1ccc(Cl)cc1)c1ccccn1 (centres undefined): inactive
- CCCCCCCCCCCCCCCCCC[N+](C)(C)C: active
- Cc1cccnc1: inactive
- Cc1cc(-n2nc3ccc(Cl)cc3n2)c(O)c(C(C)(C)C)c1: inactive
- CN(C)c1ccc(C(c2ccccc2)c2ccc(N(C)C)cc2)cc1: active

----------
experiment: ATG_RORE_CIS: Attagene CIS-FACTORIAL HepG2 Assay for human RAR-related Orphan Receptor Element (RORE) (AID 2282959); settings: HepG2 Attagene cis-factorial RORE reporter, mRNA; actives raise or lower the signal
Activity calls are given as the source filed them. Rule for the calls: active = hit-call score of the fitted dose curve at least 0.9, where 1 is the maximum; inactive = score below 0.9.
Outcome codes: active, inactive

* CCCCCCC(O)CCCCCCCCCCC(=O)OC (stereo unspecified) | active
* CC/C=C\CCO | inactive
* C[C@H]1C[C@H]2[C@@H]3CCC4=CC(=O)C=C[C@]4(C)[C@@]3(F)[C@@H](O)C[C@]2(C)[C@@]1(O)C(=O)CO | inactive
* COc1cccc(OC)c1C(=O)O | inactive
* CC1=C(CC(=O)O)c2cc(F)ccc2/C1=C\c1ccc(S(C)=O)cc1 (stereo unspecified) | inactive
* O=[N+]([O-])c1ccccc1C(F)(F)F | inactive
